# credit: ChEMBL document CHEMBL3352436

measured-on: Somatostatin receptor type 2 (Homo sapiens)
Sequence (P30874 whole entry): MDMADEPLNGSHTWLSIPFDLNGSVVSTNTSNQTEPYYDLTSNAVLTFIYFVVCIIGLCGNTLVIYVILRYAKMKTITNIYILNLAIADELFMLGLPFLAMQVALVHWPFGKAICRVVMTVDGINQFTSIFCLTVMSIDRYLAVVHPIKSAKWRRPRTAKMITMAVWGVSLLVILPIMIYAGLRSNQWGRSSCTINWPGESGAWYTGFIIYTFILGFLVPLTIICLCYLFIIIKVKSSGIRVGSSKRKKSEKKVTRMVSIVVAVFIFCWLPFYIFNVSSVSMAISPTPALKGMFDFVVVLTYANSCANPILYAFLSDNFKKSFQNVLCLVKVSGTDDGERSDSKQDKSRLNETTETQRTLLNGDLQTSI
assay-comment: Binding affinity to SST2 receptor (unknown origin)
pKi: −log10 of the molar value.

structure-as-smiles: CN1CCc2c(c3cccc4c3n2CCc2ccccc2-4)C1
pKi: < 5.00

---

assay-comment: Elimination rate constant in CD rat at 27 mg/kg, iv
Assay type: ADME, organism-based
Parameters: dose 27 mg/kg, route intravenous
test-conditions: in vivo
assay-metric: k el (s⁻¹)

structure-as-smiles: COc1ccc2c(c1)c(CC(=O)O)c(C)n2C(=O)c1ccc(Cl)cc1
assay-metric: k el
unit-of-measure: s⁻¹
experimental-value: 3.33e-05

---

assay-comment: Tmax in CD1 mouse at 5 mg/kg, po
Assay type: ADME, organism-based
Parameters: dose 5 mg/kg, route oral
test-conditions: in vivo

structure-as-smiles: CN1CCc2c(c3cccc4c3n2CCc2ccccc2-4)C1
Tmax, min: 15
